Catalogue of apparent Kd values
Test system: MS2 coat protein
Assay: apparent Kd, MS2 coat protein; higher = weaker binding; RNA-MaP array
Settings: ligand present: flavin mononucleotide; designed as: OFF switch for flavin mononucleotide
Report only the number, with the unit nM understood.

>>> readout_number("UCACUGUUAGGAUAUCUCAUAGCAGUAGGUCAGCUAUUUUGAGAGAAGGAACAUGAGGAUCACCCAUGUAAAUA")
84.7
>>> readout_number("GCUCGAGGGCAAGGAUAUAGGGAGAAACAACGCCUAGAAGGUGCACACAUGAGGAUCACCCAUGUUUCUCUAUGACGGAUCAUC")
17.3

apparent Kd reading for GCAUUAACAAAGGAUAUGCAUUUCGUCAAUGUAGCAGAAGGUUGUACAUGAGGAUCACCCAUGUGUGAUCGAAC : 56.6

apparent Kd reading for UGCCAGGCACAGAAGGUAGCGUGUCCUCAAGACAUGAGGAUCACCCAUGUGGAAAGAUUAAGACCUAAGGAUAUGUGUAUCACC : 93.9

apparent Kd reading for AUAACACAUGAGGAUCACCCAUGUAAGGAUAUAGUAGCAAUGGAAAGAAAUCUAUCCUCUAGAAGGUACACGGC : 15.3

apparent Kd reading for UAUUAGUUAGAGAAGGUCCUUAGGCCGCGUAAGGAAGGAUAUCUGCAUCACGGGCCUCUGGCAACAUGAGGAUCACCCAUGUGG : 156

apparent Kd reading for CGAACUAGCUAGAAGGAACAGGCGACUAAAGUGUUAGGAUAUAGGCGUAUGUGCAGACAUGAGGAUCACCCAUGUGUCGAAUUU : 14.7
